Each entry below lists one item and its recorded MIC value.
Tested on: N. gonorrhoeae WHO M
Test: Liquid broth MIC in Fastidious broth
Conditions: Neisseria gonorrhoeae, read-out: Minimum Inhibitory Concentration (MIC), N. gonorrhoeae WHO M

1) O=C(O)c1cccc2c1OB(O)[C@@H](NC(=O)[C@@H](NC(=O)c1cnc3sccn3c1=O)c1ccc(P(=O)(O)O)cc1)C2 (single isomer, unassigned) [Example 194] ... 4 to 8 µg/mL
2) CS(=O)(=O)N1CCC[C@H]1C(=O)N[C@H](C(=O)N[C@H]1Cc2cccc(C(=O)O)c2OB1O)c1ccc(P(=O)(O)O)cc1 [Example 43] ... 1 to 2 µg/mL

query: GET /values?readout=MIC&item= O=C(O)c1cccc2c1OB(O)[C@@H](NC(=O)C(NC(=O)C1CCCCC1)c1ccc(P(=O)(O)O)cc1)C2 (stereo partly drawn) [Example 31]
result: 4 to 8 µg/mL

query: GET /values?readout=MIC&item= CN1CCC[C@@H]1C(=O)N[C@@H](C(=O)N[C@H]1Cc2cccc(C(=O)O)c2OB1O)c1ccc(P(=O)(O)O)cc1 (racemic) [Example 54]
result: 4 to 8 µg/mL

query: GET /values?readout=MIC&item= CS(=O)(=O)N1CCN(C(=O)NC(C(=O)N[C@H]2Cc3cccc(C(=O)O)c3OB2O)c2ccc(P(=O)(O)O)c(F)c2O)C1=O (stereo partly drawn) [Example 48]
result: < 1 µg/mL

###

Target: PBP3 from Escherichia coli (K-12) (Escherichia coli)
Sequence (P0AD68 1-577): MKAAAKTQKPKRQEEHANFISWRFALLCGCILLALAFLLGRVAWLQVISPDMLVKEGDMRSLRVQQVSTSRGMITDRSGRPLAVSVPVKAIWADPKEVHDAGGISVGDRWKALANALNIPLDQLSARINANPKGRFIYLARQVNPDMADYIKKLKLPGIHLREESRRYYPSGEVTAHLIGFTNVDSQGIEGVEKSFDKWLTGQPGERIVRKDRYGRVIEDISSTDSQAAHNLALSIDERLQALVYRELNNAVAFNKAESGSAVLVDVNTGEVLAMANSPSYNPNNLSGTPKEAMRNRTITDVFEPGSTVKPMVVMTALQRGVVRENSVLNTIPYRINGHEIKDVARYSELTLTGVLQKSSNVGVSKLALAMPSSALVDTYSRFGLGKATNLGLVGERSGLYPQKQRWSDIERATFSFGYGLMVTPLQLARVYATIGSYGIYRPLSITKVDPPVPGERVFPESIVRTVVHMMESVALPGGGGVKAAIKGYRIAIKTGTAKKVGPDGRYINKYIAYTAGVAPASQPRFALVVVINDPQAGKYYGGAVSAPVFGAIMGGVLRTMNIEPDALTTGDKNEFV
Assay: Bocillin-FL fluorescence polarization competition binding, E. coli PBP3
attributeMeasured: EC50

1) O=C(O)c1cccc2c1OB(O)[C@@H](NC(=O)C(NC(=O)C1CC1)c1ccc(P(=O)(O)O)cc1)C2 (some centres unmarked) [Example 30] ... 50 to 250 µM
2) O=C(NCCCN1CCN(C(=O)N[C@H](C(=O)N[C@H]2Cc3ccc(F)c(C(=O)O)c3OB2O)c2cc(F)c(O)c(O)c2Cl)C1=O)c1cccc(O)c1 [Example 254] ... 50 to 250 µM

query: # returns recorded EC50 (system: PBP3 from Escherichia coli (K-12) (Escherichia coli)) for O=C(NCCCN1CCN(C(=O)N[C@@H](C(=O)N[C@H]2Cc3ccc(F)c(C(=O)O)c3OB2O)c2cc(F)c(O)c(O)c2Cl)C(=O)C1=O)c1c(F)cc(O)cc1F (racemic) [Example 420]
result: < 10 µM

query: # returns recorded EC50 (system: PBP3 from Escherichia coli (K-12) (Escherichia coli)) for O=C(NCCCN1CCN(C(=O)N[C@@H](C(=O)N[C@H]2Cc3ccc(F)c(C(=O)O)c3OB2O)c2cc(F)c(O)c(O)c2Cl)C(=O)C1=O)c1ccc(O)cc1Cl (single isomer, unassigned) [Example 471]
result: < 10 µM

query: # returns recorded EC50 (system: PBP3 from Escherichia coli (K-12) (Escherichia coli)) for O=C(NCCN1CCN(C(=O)NC(C(=O)N[C@H]2Cc3ccc(F)c(C(=O)O)c3OB2O)c2cc(F)c(O)c(O)c2Cl)C(=O)C1=O)Nc1cccc(O)c1 (some centres unmarked) [Example 220]
result: < 10 µM

query: # returns recorded EC50 (system: PBP3 from Escherichia coli (K-12) (Escherichia coli)) for O=C(O)c1c(F)ccc2c1OB(O)[C@@H](NC(=O)C(NC(=O)N1CCN(Cc3ccc(O)c(O)c3Cl)C(=O)C1=O)c1ccc(P(=O)(O)O)c(F)c1)C2 (some centres unmarked) [Example 23]
result: < 10 µM

query: # returns recorded EC50 (system: PBP3 from Escherichia coli (K-12) (Escherichia coli)) for O=C(NCCN1CCN(C(=O)NC(C(=O)N[C@H]2Cc3ccc(F)c(C(=O)O)c3OB2O)c2cc(F)c(O)c(O)c2Cl)C1=O)c1nccs1 (some centres unmarked) [Example 247]
result: 10 to 50 µM

query: # returns recorded EC50 (system: PBP3 from Escherichia coli (K-12) (Escherichia coli)) for O=C(NCCCN1CCN(C(=O)NC(C(=O)N[C@H]2Cc3ccc(F)c(C(=O)O)c3OB2O)c2cc(F)c(O)c(O)c2Cl)C(=O)C1=O)c1cc(F)ncc1F (mixture of isomers) [Example 405]
result: < 10 µM

query: # returns recorded EC50 (system: PBP3 from Escherichia coli (K-12) (Escherichia coli)) for O=C(NCCCN1CCN(C(=O)N[C@@H](C(=O)N[C@H]2Cc3ccc(F)c(C(=O)O)c3OB2O)c2cc(F)c(O)c(O)c2Cl)C1=O)c1cccc(O)c1 [Example 255]
result: < 10 µM

query: # returns recorded EC50 (system: PBP3 from Escherichia coli (K-12) (Escherichia coli)) for O=C(N[C@H](C(=O)N[C@H]1Cc2cccc(C(=O)O)c2OB1O)c1ccc(P(=O)(O)O)cc1)c1cnc2ccnn2c1 (single isomer, unassigned) [Example 186]
result: > 250 µM

query: # returns recorded EC50 (system: PBP3 from Escherichia coli (K-12) (Escherichia coli)) for O=C(O)c1cccc2c1OB(O)[C@@H](NC(=O)C(NC(=O)c1cnc[nH]c1=O)c1ccc(P(=O)(O)O)cc1)C2 (some centres unmarked) [Example 176]
result: 50 to 250 µM

###

Target: PBP3 from Pseudomonas aeruginosa (PAO1) (Pseudomonas aeruginosa)
Sequence (G3XD46 whole entry): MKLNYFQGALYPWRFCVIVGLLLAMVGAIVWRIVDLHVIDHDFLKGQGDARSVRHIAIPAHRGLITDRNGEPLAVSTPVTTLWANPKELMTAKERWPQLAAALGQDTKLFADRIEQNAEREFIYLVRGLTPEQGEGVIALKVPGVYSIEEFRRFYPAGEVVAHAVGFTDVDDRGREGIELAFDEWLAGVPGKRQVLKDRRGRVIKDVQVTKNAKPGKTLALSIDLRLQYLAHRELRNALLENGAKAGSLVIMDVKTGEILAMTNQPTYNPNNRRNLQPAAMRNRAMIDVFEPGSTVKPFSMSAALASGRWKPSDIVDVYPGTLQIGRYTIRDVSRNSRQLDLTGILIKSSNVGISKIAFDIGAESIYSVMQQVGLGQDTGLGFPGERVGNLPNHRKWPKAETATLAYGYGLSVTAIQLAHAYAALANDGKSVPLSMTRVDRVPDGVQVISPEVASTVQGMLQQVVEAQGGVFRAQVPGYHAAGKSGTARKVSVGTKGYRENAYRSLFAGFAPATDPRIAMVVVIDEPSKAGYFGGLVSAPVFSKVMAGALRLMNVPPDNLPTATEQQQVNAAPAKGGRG
Test: Bocillin-FL fluorescence polarization competition binding, P. aeruginosa PBP3
Details: Binding affinity to P. aeruginosa PBP3; fluorescence polarization competition binding assay using Bocillin-FL; read-out: P. aeruginosa PBP3 Potency
From the text: To determine the ability of boronic acid-based test PBP inhibitors to bind Penicillin Binding Proteins (PBPs), Bocillin-FL (fluorescently-labeled penicillin V; ThermoFisher Scientific) was used in a fluorescence polarization (FP) competition binding assay to assess inhibitor binding to PBP3 from Escherichia coli (K-12), PBP3 from Pseudomonas aeruginosa (PAO1), PBP1a and PBP3 from Acinetobacter baumannii (ATCC 19606), and PBP2 from Neisseria gonorrhoeae (FA19). […]
Each entry below lists one item and its recorded IC50 value.

1. CN(CCN1CCN(C(=O)N[C@@H](C(=O)N[C@H]2Cc3ccc(F)c(C(=O)O)c3OB2O)c2cc(F)c(O)c(O)c2Cl)C(=O)C1=O)Cc1cccc(C(N)=O)c1 ... < 10 µM
2. O=C(O)c1cccc2c1OB(O)[C@@H](NC(=O)C(NC(=O)[C@H]1CCCN1)c1ccc(P(=O)(O)O)cc1)C2 (some centres unmarked) ... 50 to 250 µM
3. O=C(O)c1c(F)ccc2c1OB(O)[C@@H](NC(=O)[C@H](NC(=O)N1CCN(C3CCN(C(=O)c4cc(F)c(O)c(O)c4Cl)CC3)C1=O)c1ccc(P(=O)(O)O)cc1)C2 (single isomer, unassigned) ... < 10 µM
4. O=C(NCCN1CCN(C(=O)NC(C(=O)N[C@H]2Cc3ccc(F)c(C(=O)O)c3OB2O)c2cc(F)c(O)c(O)c2Cl)C1=O)Nc1cccc(O)c1 (some centres unmarked) ... < 10 µM
5. O=C(O)c1c(F)ccc2c1OB(O)[C@@H](NC(=O)[C@H](NC(=O)N1CCN(C3CCN(Cc4ccncc4)CC3)C1=O)c1cc(F)c(O)c(O)c1Cl)C2 ... < 10 µM

query: # returns recorded IC50 (system: PBP3 from Pseudomonas aeruginosa (PAO1) (Pseudomonas aeruginosa)) for O=C(NCCN1CCN(C(=O)NC(C(=O)N[C@H]2Cc3ccc(F)c(C(=O)O)c3OB2O)c2cc(F)c(O)c(O)c2Cl)C(=O)C1=O)Nc1cccc(O)c1 (some centres unmarked)
result: < 10 µM

query: # returns recorded IC50 (system: PBP3 from Pseudomonas aeruginosa (PAO1) (Pseudomonas aeruginosa)) for O=C(NCCCS(=O)(=O)N1CCN(C(=O)NC(C(=O)N[C@H]2Cc3ccc(F)c(C(=O)O)c3OB2O)c2cc(F)c(O)c(O)c2Cl)C1=O)c1nccs1 (some centres unmarked)
result: < 10 µM

query: # returns recorded IC50 (system: PBP3 from Pseudomonas aeruginosa (PAO1) (Pseudomonas aeruginosa)) for CS(=O)(=O)N1CCN(C(=O)N[C@@H](C(=O)N[C@H]2Cc3cccc(C(=O)O)c3OB2O)c2ccc(P(=O)(O)O)c(F)c2F)C1=O (single isomer, unassigned)
result: < 10 µM

query: # returns recorded IC50 (system: PBP3 from Pseudomonas aeruginosa (PAO1) (Pseudomonas aeruginosa)) for O=C(NCCCN1CCN(C(=O)NC(C(=O)N[C@H]2Cc3ccc(F)c(C(=O)O)c3OB2O)c2cc(F)c(O)c(O)c2Cl)C(=O)C1=O)c1cc(O)c(F)c(O)c1F (some centres unmarked)
result: < 10 µM

query: # returns recorded IC50 (system: PBP3 from Pseudomonas aeruginosa (PAO1) (Pseudomonas aeruginosa)) for O=C(NCCCN1CCN(C(=O)NC(C(=O)N[C@H]2Cc3ccc(F)c(C(=O)O)c3OB2O)c2cc(F)c(O)c(O)c2Cl)C(=O)C1=O)Nc1ccncc1 (some centres unmarked)
result: < 10 µM

query: # returns recorded IC50 (system: PBP3 from Pseudomonas aeruginosa (PAO1) (Pseudomonas aeruginosa)) for O=C(O)c1c(F)ccc2c1OB(O)[C@@H](NC(=O)[C@H](NC(=O)N1CCN(C3CCN(C(=O)c4ccc(F)c(O)c4)CC3)C1=O)c1cc(F)c(O)c(O)c1Cl)C2 (single isomer, unassigned)
result: < 10 µM
